Assay read-out IC50; system under study: Steryl-sulfatase (Homo sapiens, UniProt P08842).
Sequence (P08842 whole entry): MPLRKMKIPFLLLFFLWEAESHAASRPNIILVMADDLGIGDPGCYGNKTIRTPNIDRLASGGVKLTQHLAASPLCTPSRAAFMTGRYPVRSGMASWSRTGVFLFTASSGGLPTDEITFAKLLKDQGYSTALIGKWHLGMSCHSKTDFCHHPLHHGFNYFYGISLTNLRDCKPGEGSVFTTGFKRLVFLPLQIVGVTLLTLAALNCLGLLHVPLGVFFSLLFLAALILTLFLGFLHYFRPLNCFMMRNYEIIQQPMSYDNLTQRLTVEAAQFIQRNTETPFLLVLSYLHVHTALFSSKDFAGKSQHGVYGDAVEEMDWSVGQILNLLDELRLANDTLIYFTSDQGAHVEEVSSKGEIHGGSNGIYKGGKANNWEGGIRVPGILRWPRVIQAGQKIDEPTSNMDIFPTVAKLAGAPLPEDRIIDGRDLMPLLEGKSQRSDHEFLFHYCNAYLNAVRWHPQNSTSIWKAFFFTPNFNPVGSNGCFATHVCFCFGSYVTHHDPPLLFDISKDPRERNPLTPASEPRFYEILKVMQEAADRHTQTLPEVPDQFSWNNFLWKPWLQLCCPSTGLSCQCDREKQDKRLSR

These solved cases illustrate the format of a correct answer.
NS(=O)(=O)OCC(Cl)(Cl)Cl :: 750 µM
NS(=O)(=O)Oc1ccc(F)cc1 [4-fluorophenyl sulfamate] :: 537 µM

Proceed to the following item.
Request: GET IC50 | system: Steryl-sulfatase (Homo sapiens, UniProt P08842) | item: NS(=O)(=O)Oc1ccccc1
Result: > 10000 µM

These measurements were taken from BindingDB's records for doi:10.1016/s0960-894x(02)00137-3.
